- Tested on: β-catenin/Tcf-4
- Procedure Details: cells
- Format: cell-based
- Study Conditions: Homo sapiens, SW480, 24 h, Tcf 33.13 cells derived from SW480; 24 hours of incubation with compound; ratio Firefly/Renilla luciferase
In this section, each of the compounds is paired with its reported log10 of IC50.
Assay Metric: log10 of IC50 (log10 of the value in nM)

given_smiles=Cc1ccc2c(NCc3ccc(NC(=O)C4CCN(Cc5ccc(C(F)(F)F)cc5)CC4)cc3)nc(N(C)C)nc2c1 assay_metric="log10 of IC50" numeric_readout=2.85
given_smiles=COc1ccc(CN2CCC(C(=O)Nc3ccc(CNc4nc(N(C)C)nc5cc(C)ccc45)cc3)CC2)cc1 assay_metric="log10 of IC50" numeric_readout=2.33
given_smiles=Cc1ccc2c(NCc3ccc(NC(=O)c4ccc(C)nc4)cc3)nc(N(C)C)nc2c1 assay_metric="log10 of IC50" numeric_readout=2.91
given_smiles=CN(C)c1nc(NCc2ccc(NC(=O)c3ccc(Cl)nc3)cc2)c2ccccc2n1 assay_metric="log10 of IC50" numeric_readout=2.85
given_smiles=Cc1ccc2nc(N3CCN(c4ccccn4)CC3)nc(NCc3ccc(NC(=O)C4CCN(Cc5ccccc5)CC4)cc3)c2c1 assay_metric="log10 of IC50" numeric_readout=3.23
given_smiles=CN(C)c1nc(NCc2ccc(NC(=O)c3ccc(F)cc3)cc2)c2ccc(-c3ccccc3C=O)cc2n1 assay_metric="log10 of IC50" numeric_readout=3.47
given_smiles=O=C(Nc1ccc(CNc2nc(NC3CC3)nc3ccccc23)cc1)c1ccc(F)cc1 assay_metric="log10 of IC50" numeric_readout=3.06

----------
- Tested on: β-catenin/Tcf-4
- Procedure Details: cells
- Format: cell-based
- Study Conditions: Homo sapiens, SW480, 24 h, Tcf 33.13 cells derived from SW480; 24 hours of incubation with compound; ratio Firefly/Renilla luciferase
- Method: Background cell line: SW480 colorectal carcinoma DNA constructs: 1) Tcf-4-Luc: Tcf-4 binding sites driving Firefly Luciferase in the pGL3 vector—to measure the activity of β-catenin/Tcf-4; […] Assay Readout: The luciferase signal was detected using a luciferase detection kit from Promega. […] Firefly substrate was then added and the resulting luminescence was immediately read on a CCD camera imaging device or a luminometer. […] Renilla luciferase was then quantified using the CCD camera or luminometer. […]
Assay Metric: IC50 (nM)

given_smiles=Cc1ccc2c(NCc3ccc(NC(=O)c4ccc(F)cc4)cc3)nc(N3CCN(C=O)CC3)nc2c1 numeric_readout=3680
given_smiles=Cc1ccc2nc(N3CCC(N4CCCC4)CC3)nc(NCc3ccc(NC(=O)C4CCN(Cc5ccccc5)CC4)cc3)c2c1 numeric_readout=425
given_smiles=Cc1ccc2c(NCc3ccc(NC(=O)C4CCN(C5CCCCC5)CC4)cc3)nc(N(C)C)nc2c1 numeric_readout=809
given_smiles=Cc1ccc2c(NCc3ccc(NC(=O)c4ccc(F)cc4)cc3)nc(NCCCN3CCN(C)CC3)nc2c1 numeric_readout=2320
given_smiles=Cc1ccc2c(NCc3ccc(NC(=O)c4ccc(F)cc4)cc3)nc(N3CCC(N4CCCC4)CC3)nc2c1 numeric_readout=754
given_smiles=Cc1ccc2c(NCc3ccc(NC(=O)C4CCN(Cc5ccccc5)CC4)cc3)nc(N(C)CCCN(C)C)nc2c1 numeric_readout=1320
given_smiles=C/C=C\c1ccc2c(NCc3ccc(NC(=O)C4CCN(Cc5ccccc5)CC4)cc3)nc(N(C)C)nc2c1 numeric_readout=305

----------
Counter-ions that a name gives are not always drawn.
Assay Metric: melting point

compound="CC(=O)c1ccc2c(NCc3ccc(NC(=O)c4ccc(F)cc4)cc3)nc(N(C)C)nc2c1 [Example 94]" assay_metric="melting point" result="195 °C"
compound="CCCNc1nc(NCc2ccc(NC(=O)c3ccc(F)cc3)cc2)c2ccc(C)cc2n1 [Example 231]" assay_metric="melting point" result="170 to 174 °C"
compound="CNc1nc(NCc2ccc(NC(=O)c3ccc(Cl)nc3)cc2)c2c(C)cccc2n1 [Example 194]" assay_metric="melting point" result="233 to 236 °C"
compound="O=C(Nc1ccc(CNc2nc(N3CCC3)nc3ccccc23)cc1)c1ccc(F)cc1 [Example 114]" assay_metric="melting point" result="249 °C"
compound="Cc1ccc2c(NCc3ccc(NC(=O)C4CCN(Cc5ccc(F)c(F)c5)CC4)cc3)nc(N(C)C)nc2c1 [Example 255]" assay_metric="melting point" result="97 to 99 °C"
compound="Cc1ccc2c(NCc3ccc(NC(=O)c4ccc(F)cc4)cc3)nc(N3CCCCCC3)nc2c1 [Example 235]" assay_metric="melting point" result="135 to 139 °C"
compound="Cc1ccc2c(NCc3ccc(NC(=O)c4ccc(F)cc4)cc3)nc(NC3CCN(Cc4ccccc4)CC3)nc2c1 [Example 233]" assay_metric="melting point" result="135 to 138 °C"
compound="CN(C)c1nc(NCc2ccc(NC(=O)c3ccc(F)cc3)cc2)c2ccc(C#N)cc2n1 (as salt: HCl) [Example 89]" assay_metric="melting point" result="150 °C"

----------
- Test system: β-catenin/Tcf-4
- Procedure Details: cells
- Type: cell-based
- Study Conditions: Homo sapiens, SW480, 24 h, Tcf 33.13 cells derived from SW480; 24 hours of incubation with compound; ratio Firefly/Renilla luciferase
Assay Metric: IC50 (nM)

given_smiles=Cc1ccc(CN2CCC(C(=O)Nc3ccc(CNc4nc(N(C)C)nc5cc(C)ccc45)cc3)CC2)cc1 modifier_sign== numeric_readout=467
given_smiles=Cc1ccc2c(NCc3ccc(NC(=O)C4CCN(Cc5ccccc5)CC4)cc3)nc(N(C)C)nc2c1 modifier_sign== numeric_readout=754
given_smiles=CCN(CC)c1nc(NCc2ccc(NC(=O)c3ccc(Cl)cc3)cc2)c2cc(C(F)(F)F)ccc2n1 modifier_sign== numeric_readout=5430
given_smiles=Cc1ccc2c(NCc3ccc(NC(=O)C4CCN(Cc5cc(F)ccc5F)CC4)cc3)nc(N(C)C)nc2c1 modifier_sign== numeric_readout=184
given_smiles=CNc1nc(NCc2ccc(NC(=O)c3ccccc3F)cc2)c2cc(C)ccc2n1 modifier_sign== numeric_readout=12800
given_smiles=CN(C)c1nc(NCc2ccc(NC(=O)c3ccc(F)cc3)cc2)c2ccc(/C=C/C(C)(C)C)cc2n1 modifier_sign== numeric_readout=825
given_smiles=Cc1ccc2c(NCc3ccc(NC(=O)c4ccc(F)cc4)cc3)nc(NC3CCN(Cc4ccccc4)CC3)nc2c1 modifier_sign=> numeric_readout=2180
given_smiles=Cc1ccc2c(NCc3ccc(NC(=O)C4CCN(CC(C)C)CC4)cc3)nc(N(C)C)nc2c1 modifier_sign== numeric_readout=962
given_smiles=Cc1ccc2c(NCc3ccc(NC(=O)c4ccc(F)cc4)cc3)nc(N3CCC[C@H]3CN3CCCC3)nc2c1 modifier_sign== numeric_readout=2210
given_smiles=Cc1ccc2c(NCc3ccc(NC(=O)Nc4ccc(Cl)cc4)cc3)nc(N(C)C)nc2c1 modifier_sign=> numeric_readout=5420
given_smiles=Cc1ccc2c(NCc3ccc(NC(=O)c4ccc(F)cc4)cc3)nc(N3CCCCCC3)nc2c1 modifier_sign== numeric_readout=448
given_smiles=Cc1ccc2nc(N3CCN(c4ncccn4)CC3)nc(NCc3ccc(NC(=O)C4CCN(Cc5ccccc5)CC4)cc3)c2c1 modifier_sign== numeric_readout=891
given_smiles=CN(C)c1nc(NCc2ccc(NC(=O)c3ccc(F)cc3)cc2)c2ccc(CN)cc2n1 modifier_sign== numeric_readout=1300
given_smiles=COC(=O)c1ccc2nc(N(C)C)nc(NCc3ccc(NC(=O)c4ccc(F)cc4)cc3)c2c1 modifier_sign== numeric_readout=1480
given_smiles=CNc1nc(NCc2ccc(NC(=O)c3ccc(Cl)cc3F)cc2)c2ccccc2n1 modifier_sign== numeric_readout=1290
given_smiles=C[C@H](Nc1nc(N(C)C)nc2cc(I)ccc12)c1ccc(NC(=O)c2ccc(Cl)nc2)cc1 modifier_sign== numeric_readout=1470
given_smiles=CN(C)c1nc(NCc2ccc(NC(=O)C3CCN(Cc4ccccc4)CC3)cc2)c2cc(I)ccc2n1 modifier_sign== numeric_readout=1380
given_smiles=C=Cc1ccc2nc(N(C)C)nc(NCc3ccc(NC(=O)c4ccc(Cl)nc4)cc3)c2c1 modifier_sign== numeric_readout=194
given_smiles=Cc1ccc2c(NCc3ccc(NC(=O)C4CCN(Cc5ccccc5)CC4)cc3)nc(N(C)Cc3ccccc3)nc2c1 modifier_sign== numeric_readout=677
given_smiles=Cc1ccc2c(NCc3ccc(NC(=O)c4ccc(F)cc4)cc3)nc(N3CCN(Cc4ccc5c(c4)OCO5)CC3)nc2c1 modifier_sign== numeric_readout=3190
given_smiles=CNc1nc(NCc2ccc(NC(=O)c3cc(F)c(Cl)nc3Cl)cc2)c2ccccc2n1 modifier_sign== numeric_readout=1530
given_smiles=CN(C)c1nc(NCc2ccc(NC(=O)c3ccc(Cl)nc3)cc2)c2ccc(I)cc2n1 modifier_sign== numeric_readout=1190

----------
- Test system: β-catenin/Tcf-4
- Procedure Details: cells
- Format: cell-based
- Study Conditions: Homo sapiens, SW480, 24 h, Tcf 33.13 cells derived from SW480; 24 hours of incubation with compound; ratio Firefly/Renilla luciferase
In this section, each of the compounds is paired with its reported IC50.
Assay Metric: IC50 (nM)

given_smiles=CNc1nc(NCc2ccc(NC(=O)C3CCN(Cc4ccccc4)CC3)cc2)c2ccccc2n1 numeric_readout=1250
given_smiles=Cc1ccc2c(NCc3ccc(NC(=O)C4CCN(Cc5ccccc5)CC4)cc3)nc(N3CCN(c4ncccn4)CC3)nc2c1 numeric_readout=365
given_smiles=C=Cc1ccc2c(NCc3ccc(NC(=O)c4ccc(Cl)nc4)cc3)nc(N(C)C)nc2c1 numeric_readout=181
given_smiles=CNc1nc(NCc2ccc(NC(=O)c3ccc(OC(F)(F)F)cc3)cc2)c2ccccc2n1 numeric_readout=1230
